experimental system: Forkhead box protein O1 (Homo sapiens)
Sequence (Q12778 whole entry): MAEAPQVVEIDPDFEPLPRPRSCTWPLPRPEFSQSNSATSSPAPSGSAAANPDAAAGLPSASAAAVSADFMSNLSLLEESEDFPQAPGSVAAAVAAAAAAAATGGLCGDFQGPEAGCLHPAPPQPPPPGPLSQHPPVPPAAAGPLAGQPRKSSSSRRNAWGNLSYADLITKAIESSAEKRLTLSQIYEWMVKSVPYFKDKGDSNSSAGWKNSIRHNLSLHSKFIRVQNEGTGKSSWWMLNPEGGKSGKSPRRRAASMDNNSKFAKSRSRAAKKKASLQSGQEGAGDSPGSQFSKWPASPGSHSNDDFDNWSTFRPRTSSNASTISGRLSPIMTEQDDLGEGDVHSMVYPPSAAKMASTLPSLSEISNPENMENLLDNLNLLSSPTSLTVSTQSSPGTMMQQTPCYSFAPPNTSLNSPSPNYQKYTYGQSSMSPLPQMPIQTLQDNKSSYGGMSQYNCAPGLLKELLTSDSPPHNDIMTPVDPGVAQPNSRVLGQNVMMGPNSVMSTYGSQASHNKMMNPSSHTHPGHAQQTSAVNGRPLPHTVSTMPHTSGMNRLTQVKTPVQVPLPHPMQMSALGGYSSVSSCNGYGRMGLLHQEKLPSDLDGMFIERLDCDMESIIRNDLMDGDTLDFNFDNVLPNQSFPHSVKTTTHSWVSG
assay method text: Activation of FoxO1(unknown origin)
readout kind: pEC50
By convention, pEC50 is the negative base-10 log of a molar concentration.

Query: Endpoint output: pEC50 of Cc1[nH]c2ccccc2c1CCNCc1ccc(/C=C/C(=O)NO)cc1 [PANOBINOSTAT] . Value?
Response: 6.38
